Measured values drawn from ChEMBL document CHEMBL1132058 for this set.

molecular target: Protein farnesyltransferase (Homo sapiens, UniProt P49354+P49356); assay: Inhibitory activity against farnesyltransferase (FT) using SPA assay
Listed here are compounds together with their documented pIC50.
The value called pIC50 is obtained by taking minus log10 of the concentration in mol/L.

Req: Read off the recorded pIC50 for `CSCC[C@H](NC(=O)c1ccc(/C=C/c2cnccc2C2(O)CCCCC2)cc1-c1ccccc1C)C(=O)O`
Resp: 9.09

Req: Query pIC50 for `CSCC[C@H](NC(=O)c1ccc(/C(=C\c2cccnc2)C(=O)OC(C)(C)C)cc1-c1ccccc1C)C(=O)O`
Resp: 7.82

Req: Retrieve pIC50 measured for `CSCC[C@H](NC(=O)c1ccc(/C=C/c2cncc(-c3ccccc3)c2)cc1-c1ccccc1C)C(=O)O` and print it.
Resp: 7.92

---
Req: Write down pIC50 measured for item `CSCC[C@H](NC(=O)c1ccc(CCn2ccnc2)cc1-c1ccccc1C)C(=O)O`
Resp: 9.68

Req: Please list pIC50 recorded for the compound `CSCC[C@H](NC(=O)c1ccc(/C(C#N)=C\c2cccnc2)cc1-c1ccccc1C)C(=O)O`
Resp: 8.44

Req: Tell me its pIC50 given `CSCC[C@H](NC(=O)c1ccc(/C(=C/c2cccnc2)C(=O)OC(C)(C)C)cc1-c1ccccc1C)C(=O)O` as the entry.
Resp: 9.04

Req: Tell us which pIC50 value is on record for `CSCC[C@H](NC(=O)c1ccc(/C=C/n2ccnc2)cc1-c1ccccc1C)C(=O)O`
Resp: 9.70

Req: Look up and report measured pIC50 for this entry: `CSCC[C@H](NC(=O)c1ccc(/C=C/c2cncnc2)cc1-c1ccccc1C)C(=O)O`
Resp: 7.60

* * *

test system: NIH3T3; experiment: Inhibition of H-ras processing in subconfluent H-Ras-transformed NIH3T3 cells; assay type: functional, Mus musculus; design: concentration or dose not given beside the values
Could you please classify the records by Inhibition using these ranges: one (below 60%), two (60% to below 70%), three (70% or more)

Field: example entries. Status: answers known.
Req: Please classify: `CSCC[C@H](NC(=O)c1ccc(/C(=C\c2cccnc2)C(=O)OC(C)(C)C)cc1-c1ccccc1C)C(=O)O`
Resp: one

Req: Please indicate the class for `CSCC[C@H](NC(=O)c1ccc(/C=C/c2cnccc2C(=O)[C@]23C[C@H]4C[C@H](C[C@H](C4)C2)C3)cc1-c1ccccc1C)C(=O)O` based on its Inhibition.
Resp: three

Req: Category of `CSCC[C@H](NC(=O)c1ccc(/C=C/c2cnccc2O)cc1-c1ccccc1C)C(=O)O` , please.
Resp: three

Others:
Req: Using the reported Inhibition, which band applies to `CSCC[C@H](NC(=O)c1ccc(/C=C/c2cnccc2C2(O)CCCCC2)cc1-c1ccccc1C)C(=O)O` ?
Resp: three

Req: Class? Entry: `CSCC[C@H](NC(=O)c1ccc(/C(C#N)=C/c2cccnc2)cc1-c1ccccc1C)C(=O)O`
Resp: one

Req: Assign a bin to `CSCC[C@H](NC(=O)c1ccc(/C(=C/c2cccnc2)C(=O)OC(C)(C)C)cc1-c1ccccc1C)C(=O)O`
Resp: three

* * *

experiment: AUC value in dog after IV administration at a dose of 5 mg/kg; type: ADME, organism-based, Canis lupus familiaris; set-up: dose 5 mg/kg, route intravenous; conditions: plasma
measured.property: AUC (µg·h/mL)
// note: answer is a bare numeric in µg·h/mL

Req: Indicate the recorded AUC value for this compound: `CSCC[C@H](NC(=O)c1ccc(/C=C/c2cccnc2)cc1-c1ccccc1C)C(=O)O`
Resp: 10.5
